Source listed as ChEMBL document CHEMBL1201862.

HCT-15 measurements of GI50, listed per entry.
assay.endpoint: GI50

- compound.string: "COC(=O)c1ccc(OCc2ccc3nc(-c4ccccc4)c(Cl)nc3c2)cc1"
  value.measured: "> 100 µM"
- compound.string: "O=C(Nc1ccccc1)c1cc(S(=O)(=O)n2ccnc2O)c(S)cc1Cl"
  value.measured: "> 100 µM"
- compound.string: "COc1ccc(/N=N/c2ccc3oc(=O)c(C(=O)Nc4ccccc4C)cc3c2)cc1"
  value.measured: "> 10 µM"

====

- Tested on: LOX IMVI
- test.summary: NCI tumour cell line growth inhibition, 48 h
Active and inactive are the calls of the source. No stated cut-off is given here; in the data, active = GI50 up to about 1.1 µM and inactive = higher.
assay.endpoint: GI50

- compound: "CC1=NN(c2nc(N)nc(CCl)n2)C(C)(C)C1"
  value.measured: "1.78 µM (inactive)"
- compound: "CCOC(=O)C(C)(C)Oc1ccc2c(=O)cc(-c3ccccc3)oc2c1"
  value.measured: "17.5 µM (inactive)"
- compound: "Cc1cc(-c2c(Br)cc(C(=O)O)n2C)on1"
  value.measured: "> 100 µM (inactive)"
- compound: "O=C(Nc1ccc(Cl)c(Cl)c1)C1C(=O)N(c2ccc(Cl)c(Cl)c2)C(=O)/C1=N\\O (configuration not stated)"
  value.measured: "24.5 µM (inactive)"
- compound: "CCOC(=O)Oc1cc2c(ccn2C)c2c1c1ccccc1n2C(=O)OCC"
  value.measured: "> 100 µM (inactive)"
- compound: "CC1(C)CCOC(Sc2ccccc2)C1 (configuration not stated)"
  value.measured: "91.4 µM (inactive)"
- compound: "c1ccc(-n2nc3ccc4nonc4c3n2)cc1"
  value.measured: "> 100 µM (inactive)"
